The reported measurements were obtained from patent US20240376076A1.

Recorded pIC50 values for a group of molecules are listed next.
testedOn: USP7, Active human recombinant protein (Homo sapiens)
Construct: purchased CP Lot; 20200225001
assayExplanation: USP7 assay (Ubiquitin-Rhodamine 110 enzymatic assay)
Format: biochemical
conditionNotes: read-out: IC50
pIC50: −log10 of the molar value.

{"molecule": "O=C(NCCC1CC[C@@H](C(=O)N2CCC(O)(Cn3cnc4cc(-c5ncc(CN6CCNCC6)o5)ccc4c3=O)CC2)[C@H](c2ccccc2)C1)c1ccc2c(Cl)ccnc2c1 (stereo partly drawn)", "pIC50": "7.00 to 7.70"}
{"molecule": "CN(C)CCCOc1ccc2c(=O)n(CC3(O)CCN(C(=O)C(CCCNC(=O)c4ccc5c(Cl)c(C(=O)NC6CC6)cnc5c4)Cn4ccc(F)n4)CC3)cnc2c1 (stereo not drawn)", "pIC50": "> 7.70"}
{"molecule": "CN1CCC(OCCOc2ccc3c(=O)n(CC4(O)CCN(C(=O)[C@H](CCCNC(=O)c5ccc6c(Cl)cc(C7CC7)nc6c5)Cc5ccccc5)CC4)cnc3c2)CC1", "pIC50": "7.00 to 7.70"}

====

# maps each entry to its half-life at 1 µM
assayExplanation: mouse liver microsomal stability (Microsome Assay Protocol)
Type: in vitro ADME
conditionNotes: pH 7.4; mouse liver microsomes, NADPH, 37° C.; read-out: MLM t1/2, min

{"compound": "CN(C)CCC(=O)Nc1ccc2c(=O)n(CC3(O)CCN(C(=O)C(CCCNC(=O)c4ccc5c(Cl)c6c(nc5c4)C4CCC6C4)Cc4ccccc4)CC3)cnc2c1 (stereo not drawn) [Compound 91]", "readingUnit": "min", "half-life at 1 µM": 2.97}
{"compound": "CN(C)CCC(=O)Nc1ccc2c(=O)n(CC3(O)CCN(C(=O)C(CCCNC(=O)c4ccc5c(Cl)c6c(nc5c4)CN(C)CC6)Cc4ccccc4)CC3)cnc2c1 (stereo not drawn) [Compound 40]", "readingUnit": "min", "half-life at 1 µM": 7.4}
{"compound": "CN(C)CCCOc1ccc2c(=O)n(CC3(O)CCN(C(=O)C(CCCNC(=O)c4ccc5c(Cl)cc(C6CC6)nc5c4)Cn4ccc(F)n4)CC3)cnc2c1 (stereo not drawn)", "readingUnit": "min", "half-life at 1 µM": 17}

====

testedOn: USP7, Active human recombinant protein (Homo sapiens)
Construct: purchased CP Lot; 20200225001
assayExplanation: USP7 assay (Ubiquitin-Rhodamine 110 enzymatic assay)
Assay type: biochemical
conditionNotes: read-out: IC50
IC50: recorded values
measuredProperty: IC50

{"molecule": "Cn1nc2c(=O)n(CC3(O)CCN(C(=O)C(CCCNC(=O)c4ccc5c(Cl)ccnc5c4)Cc4ccccc4)CC3)cnc2c1-c1cccc(C#N)c1 (stereo not drawn)", "endpointResult": "20 to 100 nM"}
{"molecule": "O=C(NCCN1CCC(C(=O)N2CCC(O)(Cn3cnc4cc(OCCN5CCNCC5)ccc4c3=O)CC2)C(c2ccccc2)C1)c1ccc2c(Cl)cc(C3CC3)nc2c1 (stereo not drawn)", "endpointResult": "20 to 100 nM"}
{"molecule": "CN(C)CCC(=O)Nc1ccc2c(=O)n(CC3(O)CCN(C(=O)C(Cc4ccccc4)c4cccc(NC(=O)c5ccc6c(Cl)ccnc6c5)c4)CC3)cnc2c1 (stereo not drawn)", "endpointResult": "100 to 1000 nM"}
{"molecule": "CN(C)CC(=O)Nc1ccc2c(=O)n(CC3(O)CCN(C(=O)[C@H]4CC[C@@H](NC(=O)c5ccc6c(Cl)ccnc6c5)CC4)CC3)cnc2c1", "endpointResult": "> 1000 nM"}
{"molecule": "CN1CCN(CCC(=O)Nc2ccc3c(=O)n(CC4(O)CCN(C(=O)C(CCCNC(=O)c5ccc6c(Cl)c7c(nc6c5)CCCC7)Cc5ccccc5)CC4)cnc3c2)CC1 (stereo not drawn)", "endpointResult": "< 20 nM"}
{"molecule": "CN(C)CCCOc1ccc2c(=O)n(CC3(O)CCN(C(=O)[C@H](CCCNC(=O)c4ccc5c(Cl)c(C#N)cnc5c4)Cc4ccccc4)CC3)cnc2c1", "endpointResult": "< 20 nM"}
{"molecule": "CN(C)CCC(=O)Nc1ccc2c(=O)n(CC3(O)CCN(C(=O)[C@@H](CCCNC(=O)c4ccc5c(Cl)c6c(nc5c4)CN(C)CC6)Cc4ccccc4)CC3)cnc2c1", "endpointResult": "< 20 nM"}
{"molecule": "CN(C)CCCOc1ccc2c(=O)n(CC3(O)CCN(C(=O)C(Cn4ccc(F)n4)N(C)CCNC(=O)c4ccc5c(Cl)c(C(N)=O)cnc5c4)CC3)cnc2c1 (stereo not drawn)", "endpointResult": "20 to 100 nM"}
{"molecule": "Cc1cc(Cl)c2ccc(C(=O)NCCCC(Cc3ccccc3)C(=O)N3CCC(O)(Cn4cnc5cc(NC(=O)CCN(C)C)ccc5c4=O)CC3)cc2n1 (stereo not drawn)", "endpointResult": "< 20 nM"}
{"molecule": "Cc1cc(Cl)c2ccc(C(=O)N3CCN(CC(=O)N4CCC(O)(Cn5cnc6cc(Cl)ccc6c5=O)CC4)CC3)cc2n1", "endpointResult": "> 1000 nM"}
{"molecule": "CN(C)CCCOc1ccc2c(=O)n(CC3(O)CCN(C(=O)C(CCCNC(=O)c4ccc5c(Cl)cc(C6CC6)nc5c4)Cn4ccc(F)n4)CC3)cnc2c1 (stereo not drawn)", "endpointResult": "< 20 nM"}
{"molecule": "N[C@@H](c1ccc(-n2ncc3c(=O)n(CC4(O)CCN(C(=O)C(CCCNC(=O)c5ccc6c(Cl)ccnc6c5)Cc5ccccc5)CC4)cnc32)cc1)C(F)(F)F (stereo partly drawn)", "endpointResult": "20 to 100 nM"}

====

testedOn: USP7, Active human recombinant protein (Homo sapiens, UniProt Q93009)
Construct: purchased CP Lot; 20200225001
Sequence (Q93009 whole entry): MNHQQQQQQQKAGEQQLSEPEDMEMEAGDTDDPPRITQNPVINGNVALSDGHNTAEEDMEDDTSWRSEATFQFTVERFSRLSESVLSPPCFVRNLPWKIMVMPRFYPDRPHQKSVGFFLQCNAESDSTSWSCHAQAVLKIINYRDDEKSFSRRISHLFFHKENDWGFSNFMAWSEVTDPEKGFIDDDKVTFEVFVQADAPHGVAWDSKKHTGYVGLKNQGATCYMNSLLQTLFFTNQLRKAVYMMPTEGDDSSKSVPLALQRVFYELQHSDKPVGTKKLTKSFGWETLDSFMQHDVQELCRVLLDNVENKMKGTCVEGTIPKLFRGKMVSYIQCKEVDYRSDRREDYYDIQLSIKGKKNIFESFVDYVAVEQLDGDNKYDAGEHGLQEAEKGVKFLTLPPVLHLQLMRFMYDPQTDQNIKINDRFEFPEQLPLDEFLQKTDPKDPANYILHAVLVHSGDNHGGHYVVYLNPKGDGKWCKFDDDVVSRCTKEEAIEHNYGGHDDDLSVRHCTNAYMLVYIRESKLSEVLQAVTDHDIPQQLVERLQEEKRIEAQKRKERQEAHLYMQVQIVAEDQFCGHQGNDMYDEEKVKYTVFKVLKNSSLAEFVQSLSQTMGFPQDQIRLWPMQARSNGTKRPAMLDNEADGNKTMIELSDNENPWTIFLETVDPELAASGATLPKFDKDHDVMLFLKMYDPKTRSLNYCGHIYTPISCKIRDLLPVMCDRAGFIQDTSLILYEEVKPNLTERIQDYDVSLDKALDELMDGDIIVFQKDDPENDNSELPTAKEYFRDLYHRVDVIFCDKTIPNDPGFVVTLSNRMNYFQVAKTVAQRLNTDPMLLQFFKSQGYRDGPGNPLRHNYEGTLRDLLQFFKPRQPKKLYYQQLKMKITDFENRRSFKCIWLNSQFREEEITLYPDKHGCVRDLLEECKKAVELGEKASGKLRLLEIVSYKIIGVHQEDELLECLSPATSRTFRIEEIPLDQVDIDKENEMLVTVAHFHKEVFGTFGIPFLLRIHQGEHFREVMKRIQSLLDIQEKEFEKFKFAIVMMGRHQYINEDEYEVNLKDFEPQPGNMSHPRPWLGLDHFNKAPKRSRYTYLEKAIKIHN
assayExplanation: USP7 assay (Ubiquitin-Rhodamine 110 enzymatic assay)
Format: biochemical
conditionNotes: read-out: IC50
pIC50: −log10 of the molar value.

{"compound": "CN(C)CCC(=O)Nc1ccc2c(=O)n(CC3(O)CCN(C(=O)[C@H](CCCNC(=O)c4ccc5c(Cl)c6c(nc5c4)CN(C)CC6)Cc4ccccc4)CC3)cnc2c1", "testedOn": "USP7, Active human recombinant protein (Homo sapiens, UniProt Q93009)", "pIC50": "6.00 to 7.00"}
{"compound": "CN(C)CCCOc1ccc2c(=O)n(CC3(O)CCN(C(=O)[C@H](CCCNC(=O)c4ccc5c(Cl)c(C(N)=O)cnc5c4)Cc4ccccc4)CC3)cnc2c1", "testedOn": "USP7, Active human recombinant protein (Homo sapiens, UniProt Q93009)", "pIC50": "> 7.70"}
{"compound": "CN(C)CCOc1ccc2ncn(CC3(O)CCN(C(=O)C(CCCNC(=O)c4ccc5c(Cl)ccnc5c4)Cc4ccccc4)CC3)c(=O)c2c1 (stereo not drawn)", "testedOn": "USP7, Active human recombinant protein (Homo sapiens, UniProt Q93009)", "pIC50": "< 6.00"}

====

assayExplanation: plasma stability (Plasma Assay Protocol)
Assay type: in vitro ADME
conditionNotes: 37° C., t1/2 extrapolated if >50% remaining at 60 min, ∞ if near 100% remaining

{"compound": "O=C(NCCN1CCC(C(=O)N2CCC(O)(Cn3cnc4cc(OCCN5CCNCC5)ccc4c3=O)CC2)C(c2ccccc2)C1)c1ccc2c(F)ccnc2c1 (stereo not drawn)", "half-life at 2 µM (h)": 1.7}
{"compound": "CN1CCN(CCC(=O)Nc2ccc3c(=O)n(CC4(O)CCN(C(=O)[C@@H](CCCNC(=O)c5ccc6c(Cl)cc(-c7ccc(F)cc7)nc6c5)Cc5ccccc5)CC4)cnc3c2)CC1", "half-life at 2 µM (h)": 5.33}
{"compound": "O=C(NCCC[C@@H](Cc1ccccc1)C(=O)N1CCC(O)(Cn2cnc(NCCN3CCCC3)cc2=O)CC1)c1ccc2c(Cl)ccnc2c1", "half-life at 2 µM (h)": 1.53}
{"compound": "CN(C)CCC(=O)Nc1ccc2c(=O)n(CC3(O)CCN(C(=O)C(CCCNC(=O)N4CCc5c(Cl)ccnc5C4)Cc4ccccc4)CC3)cnc2c1 (stereo not drawn)", "half-life at 2 µM (h)": 3.09}
{"compound": "CN(C)CCC(=O)Nc1ccc2c(=O)n(CC3(O)CCN(C(=O)C(CCCNC(=O)c4ccc5c(Cl)c6c(nc5c4)C4CCC6C4)Cc4ccccc4)CC3)cnc2c1 (stereo not drawn)", "half-life at 2 µM (h)": 5.59}
{"compound": "CN(C)C1CCN(c2ccc3c(=O)n(CC4(O)CCN(C(=O)[C@H](CCCNC(=O)c5ccc6c(Cl)cc(C7CC7)nc6c5)Cc5ccccc5)CC4)cnc3c2)CC1", "half-life at 2 µM (h)": 2.96}

====

assayExplanation: mouse liver microsomal stability (Microsome Assay Protocol)
Type: in vitro ADME
conditionNotes: pH 7.4; mouse liver microsomes, NADPH, 37° C.; read-out: MLM t1/2, min
Recorded half-life at 1 µM, one value per entry.
measuredProperty: half-life at 1 µM (min)

{"compound": "CN(C)CC(=O)Nc1ccc2c(=O)n(CC3(O)CCN(C(=O)C(CCCNC(=O)c4ccc5c(Cl)c6c(nc5c4)CN(C)C6)Cc4ccccc4)CC3)cnc2c1 (stereo not drawn)", "measuredProperty": "half-life at 1 µM", "endpointResult": 2.9}
{"compound": "CN(C)CCCOc1ccc2c(=O)n(CC3(O)CCN(C(=O)[C@H](CCCNC(=O)c4ccc5c(Cl)c(C(=O)N(C)C)cnc5c4)Cc4ccccc4)CC3)cnc2c1", "measuredProperty": "half-life at 1 µM", "endpointResult": 33.8}
{"compound": "CN(C)CCC(=O)Nc1ccc2c(=O)n(CC3(O)CCN(C(=O)[C@@H]4CCN(CCNC(=O)c5ccc6c(Cl)ccnc6c5)C[C@H]4c4ccccc4)CC3)cnc2c1", "measuredProperty": "half-life at 1 µM", "endpointResult": 69.4}
{"compound": "CC(c1ccccc1)C(CCCNC(=O)c1ccc2c(Cl)cc(C3CC3)nc2c1)C(=O)N1CCC(O)(Cn2cnc3cc(OCCCN(C)C)ccc3c2=O)CC1 (stereo not drawn)", "measuredProperty": "half-life at 1 µM", "endpointResult": 7.27}
{"compound": "CN1CCN(CCC(=O)Nc2ccc3c(=O)n(CC4(O)CCN(C(=O)C(CCCNC(=O)c5ccc6c(Cl)cc(C7CC7)nc6c5)Cc5ccccc5)CC4)cnc3c2)CC1 (stereo not drawn)", "measuredProperty": "half-life at 1 µM", "endpointResult": 18.3}
{"compound": "CN1CCN(CCC(=O)Nc2ccc3c(=O)n(CC4(O)CCN(C(=O)C5CCN(c6cccc7c6CN(C#N)C7)C[C@H]5c5ccccc5)CC4)cnc3c2)CC1 (stereo partly drawn)", "measuredProperty": "half-life at 1 µM", "endpointResult": 30.8}
{"compound": "CN1CCN(CCC(=O)Nc2ccc3c(=O)n(CC4(O)CCN(C(=O)C(CCCNC(=O)c5ccc6c(Cl)cc(-c7cnn(CC(F)(F)F)c7)nc6c5)Cc5ccccc5)CC4)cnc3c2)CC1 (stereo not drawn)", "measuredProperty": "half-life at 1 µM", "endpointResult": 21.2}
{"compound": "CN(C)CCCOc1ccc2c(=O)n(CC3(O)CCN(C(=O)[C@@H](CCCNC(=O)c4ccc5c(Cl)c(C(N)=O)cnc5c4)Cc4ccccc4)CC3)cnc2c1", "measuredProperty": "half-life at 1 µM", "endpointResult": 30.2}
{"compound": "CN(C)CCCOc1ccc2c(=O)n(CC3(O)CCN(C(=O)[C@@H](CCCNC(=O)c4ccc5c(Cl)c6c(nc5c4)CCCC6)Cn4ccc(F)n4)CC3)cnc2c1", "measuredProperty": "half-life at 1 µM", "endpointResult": 6.96}
{"compound": "CC(=O)N1CCc2nc3cc(C(=O)NCCCC(Cc4ccccc4)C(=O)N4CCC(O)(Cn5cnc6cc(NC(=O)CN(C)C)ccc6c5=O)CC4)ccc3c(Cl)c2C1 (stereo not drawn)", "measuredProperty": "half-life at 1 µM", "endpointResult": 2.1}
{"compound": "CN(C)CCC(=O)Nc1ccc2c(=O)n(CC3(O)CCN(C(=O)c4cn(CCNC(=O)c5ccc6c(Cl)ccnc6c5)nc4C4CC4)CC3)cnc2c1", "measuredProperty": "half-life at 1 µM", "endpointResult": 95.9}
{"compound": "CN1CCC(OCCOc2ccc3c(=O)n(CC4(O)CCN(C(=O)[C@H](CCCNC(=O)c5ccc6c(Cl)cc(C7CC7)nc6c5)Cc5ccccc5)CC4)cnc3c2)CC1", "measuredProperty": "half-life at 1 µM", "endpointResult": 6.96}
